Every entry's value here was drawn from the supplement of paper PMC11208160.

experiment: recombinant barcode read abundance after kanamycin selection (control-corrected) (log10(CPM+1)); higher = more efficient recombination; sequences stand for … in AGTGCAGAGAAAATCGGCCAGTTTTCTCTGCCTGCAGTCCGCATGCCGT…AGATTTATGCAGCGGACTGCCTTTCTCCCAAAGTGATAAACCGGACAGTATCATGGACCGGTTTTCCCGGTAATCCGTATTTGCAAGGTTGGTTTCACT; site = the 11-nt target;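 also: IS621 recombinase and bridge RNA in Escherichia coli cells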
Rule: recombinant barcode read abundance (log10) of 1 or more gives YES; anything lower gives NO.

INSERT INTO measurements (sequence_data, label_class) VALUES
  ('CCAAGGGCTTGGGTTCTAACCTGTTGCAG (site CCAAGGGCTCA)', 'YES'),
  ('TCGAGTCCTTGGGTTCTAACCTGTTGCGG (site TTGAGGCCTCC)', 'NO'),
  ('GAGACTGCTTGGGTTCTAACCTGTTGCCT (site GACACTGCTAG)', 'NO'),
  ('TTCAAGTCTTGGGTTCTAACCTGTTGCGT (site TTCAAGTCTAC)', 'YES'),
  ('TAGTCGACTTGGGTTCTAACCTGTTGCTT (site TAGGCGACTAA)', 'NO'),
  ('GTTTATACTTGGGTTCTAACCTGTTGCCT (site GTGTATACTAG)', 'NO'),
  ('CCGGCCACTTGGGTTCTAACCTGTTGCCT (site CCGGCCACTAG)', 'YES'),
  ('GAGTGGCCTTGGGTTCTAACCTGTTGCGA (site TCCGTATCTCT)', 'NO'),
  ('CTAAGTACTTGGGTTCTAACCTGTTGCAG (site CTAATTACTTT)', 'NO'),
  ('TAGACAGCTTGGGTTCTAACCTGTTGCCT (site TACACAGCTAG)', 'NO'),
  ('AGGGCAGCTTGGGTTCTAACCTGTTGCCT (site AGGGGAGCTAG)', 'NO'),
  ('GTAGGTCCTTGGGTTCTAACCTGTTGCCG (site GTAGGTCCTCG)', 'YES'),
  ('AGCTAACCTTGGGTTCTAACCTGTTGCCT (site AGTGAACCTAG)', 'NO'),
  ('GTGTATCCTTGGGTTCTAACCTGTTGCCA (site GTGAAGCCTTG)', 'NO'),
  ('CACCTTCCTTGGGTTCTAACCTGTTGCAT (site CACCTTCCTAT)', 'YES'),
  ('ACCAAGCCTTGGGTTCTAACCTGTTGCGG (site GCCCAGCCTCC)', 'NO'),
  ('GGGACCTCTTGGGTTCTAACCTGTTGCTC (site GTGACCTCTCA)', 'NO'),
  ('GGGGCATCTTGGGTTCTAACCTGTTGCCT (site GGGACATCTAG)', 'NO'),
  ('GTGTGTGCTTGGGTTCTAACCTGTTGCCT (site GTGTGTACTAG)', 'NO');
